Molecular target: T1, 4H971-AA
T1 chain: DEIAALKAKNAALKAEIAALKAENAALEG
Test: two-hybrid library CCmax;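 note: natural log of median RNA to DNA barcode read ratio; higher means stronger binding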
Conditions: mean of both orientations
Measured Endpoint: interaction score

Please review the entries below; each comes with its answer.
• DKNAALKAEIAALEAEIAALEAKNAALEG [4H3591-AA] = -1.24
• DENAALEAKIAALKAKIAALKAKNAALEG [4H1391-AA] = -1.37
• DKNAALKAEIAALKAKNAALKAKIAALEG [4H3709-AA] = -1.69
• DKIAALEAENAALKAEIAALEAKNAALKG [4H2248-AA] = 1.05

1: DKNAALEAKIAALKAENAALKAEIAALEG [4H3417-AA]
2: DENAALEAEIAALKAENAALEAKIAALEG [4H1109-AA]
3: DKNAALKAEIAALKAENAALEAEIAALKG [4H3666-AA]
4: DEIAALEAKNAALKAENAALKAKIAALKG [4H478-AA]
5: DENAALKAKIAALEAKNAALKAKIAALKG [4H1854-AA]
Could you please order the items by interaction score, going from the lowest number to the highest? The reply should contain the labels ordered as requested. 5, 4, 1, 2, 3

I: DKNAALKAEIAALEAKIAALKAENAALKG [4H3628-AA]
II: DEIAALEAKNAALKAKNAALEAEIAALEG [4H497-AA]
Thinking about recorded interaction score values, which is higher, I or II ? Provide the label of your selected option as the answer. I
(I: -1.01, II: -2.19)
